# iC3b Screen Ref Fold (fold of CFI-HSA wild type) per entry for soluble human C3b (human)
readout: iC3b Screen Ref Fold (fold of CFI-HSA wild type)

>>> measurednumber("CFI-HSA Y408L; S507A; N531G; GGSSGG (SEQ ID NO: 6); CCP_1-4 (enzyme)")
0.01
>>> measurednumber("CFI-HSA variant E457G; GGSSGG (SEQ ID NO: 6); CR1(ccp1-3) (from UniProt P17927) (enzyme)")
-0.04
>>> measurednumber("CFI-HSA N531G; P535A; S507A; GGSSGG (SEQ ID NO: 6); CCP_1-4 (enzyme)")
-0.02
>>> measurednumber("CFI-HSA variant Y408L; N531G; WT; GGSSGG (SEQ ID NO: 6); CR1(ccp15-17) (from UniProt P17927) (enzyme)")
0.22
>>> measurednumber("CFI-HSA variant Y408L; E457G; N531G; P535G; WT; GGSSGG (SEQ ID NO: 6); CR1(ccp15-17) (from UniProt P17927) (enzyme)")
0.05
>>> measurednumber("CFI-HSA variant S507A; GGSSGG (SEQ ID NO: 6); CR1(ccp1-3) (from UniProt P17927) (enzyme)")
0.02
>>> measurednumber("CFI-HSA variant N531G; WT; GGSSGG (SEQ ID NO: 6); CR1(ccp15-17) (from UniProt P17927) (enzyme)")
0.05
>>> measurednumber("CFI-HSA variant Y408L; E457G; WT; GGSSGG (SEQ ID NO: 6); CR1(ccp15-17) (from UniProt P17927) (enzyme)")
0.12
>>> measurednumber("CFI-HSA variant S507A; GGSSGG (SEQ ID NO: 6); CR1(ccp15-17) (from UniProt P17927) (enzyme)")
-0.01
>>> measurednumber("CFI-HSA variant Y408L; E457G; P535G; WT; GGSSGG (SEQ ID NO: 6); CR1(ccp15-17) (from UniProt P17927) (enzyme)")
0.23

P = CFI-HSA variant N531G; P535A; GGSSGG (SEQ ID NO: 6); CR1(ccp15-17) (from UniProt P17927) (enzyme)
Q = CFI-HSA variant Y408L; P535G; WT; GGSSGG (SEQ ID NO: 6); CR1(ccp15-17) (from UniProt P17927) (enzyme)
R = CFI-HSA variant E457G; P535G; WT; GGSSGG (SEQ ID NO: 6); CR1(ccp15-17) (from UniProt P17927) (enzyme)
Sort the 3 substances by iC3b Screen Ref Fold (fold of CFI-HSA wild type); largest first, smallest last. Provide your answer as the labels ordered per the instruction. P, R, Q
(P: 0.14, R: 0.07, Q: 0.03)

====

iC3b Screen Ref Fold (fold of CFI-HSA wild type) values recorded for soluble human C3b (human)
readout: iC3b Screen Ref Fold (fold of CFI-HSA wild type)

>>> measurednumber("CFI-HSA variant E457G; N531G; P535G; WT; GGSSGG (SEQ ID NO: 6); CR1(ccp15-17) (from UniProt P17927) (enzyme)")
0.03

1 = CFI-HSA variant Y408L; N531G; P535G; WT; GGSSGG (SEQ ID NO: 6); CR1(ccp15-17) (from UniProt P17927) (enzyme)
2 = CFI-HSA variant Y408L; WT; GGSSGG (SEQ ID NO: 6); CR1(ccp15-17) (from UniProt P17927) (enzyme)
3 = CFI-HSA variant E457G; E461Q; R462K; F464Y; N531G; GGSSGG (SEQ ID NO: 6); CR1(ccp15-17) (from UniProt P17927) (enzyme)
Rank items: key iC3b Screen Ref Fold (fold of CFI-HSA wild type), increasing. Provide the ranking by listing each label in its place in the requested order. 3, 2, 1

====

Molecular target: human C4b (human)
Sequence: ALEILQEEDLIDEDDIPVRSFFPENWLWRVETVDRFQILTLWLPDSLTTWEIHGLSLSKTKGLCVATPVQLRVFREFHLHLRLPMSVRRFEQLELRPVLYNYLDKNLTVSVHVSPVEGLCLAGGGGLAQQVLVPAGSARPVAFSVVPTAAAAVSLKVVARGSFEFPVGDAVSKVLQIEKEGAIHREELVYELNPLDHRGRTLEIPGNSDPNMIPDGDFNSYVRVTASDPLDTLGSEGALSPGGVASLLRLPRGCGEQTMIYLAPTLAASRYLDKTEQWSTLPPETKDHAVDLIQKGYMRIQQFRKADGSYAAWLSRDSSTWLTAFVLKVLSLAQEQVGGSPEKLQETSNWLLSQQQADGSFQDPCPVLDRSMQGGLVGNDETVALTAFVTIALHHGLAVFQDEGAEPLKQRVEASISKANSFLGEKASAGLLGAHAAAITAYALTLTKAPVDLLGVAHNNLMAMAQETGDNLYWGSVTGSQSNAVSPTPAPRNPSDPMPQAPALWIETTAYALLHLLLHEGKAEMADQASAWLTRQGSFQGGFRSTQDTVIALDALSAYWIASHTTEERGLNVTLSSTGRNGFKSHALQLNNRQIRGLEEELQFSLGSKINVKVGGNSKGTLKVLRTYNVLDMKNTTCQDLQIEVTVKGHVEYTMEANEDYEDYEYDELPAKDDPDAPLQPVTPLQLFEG
readout: C4b Screen Ref Fold (fold of reference)

Example cases with answers are listed next.
>>> measurednumber("CFI-HSA-FH_CCP1-4 fusion, Y408L; N531G; GGSSGG (SEQ ID NO: 6); CCP_1-4 (enzyme)")
1.4
>>> measurednumber("CFI-HSA fusion WT; GGSSGG (SEQ ID NO: 6); CR1(ccp15); fH(ccp2); fH(ccp3); fH(ccp4) (from UniProt P17927) (enzyme)")
1.44

A = CFI-HSA fusion WT; GGSSGG (SEQ ID NO: 6); fH(ccp1); CR1(ccp16); CR1(ccp17); fH(ccp4) (from UniProt P17927) (enzyme)
B = CFI-HSA fusion WT; GGSSGG (SEQ ID NO: 6); CR1(ccp15); CR1(ccp16); CR1(ccp17); fH(ccp4) (from UniProt P17927) (enzyme)
Out of A and B , name the one with the higher C4b Screen Ref Fold (fold of reference). Your choice should be expressed through its label. B

====

Target: human C4b (human)
Sequence: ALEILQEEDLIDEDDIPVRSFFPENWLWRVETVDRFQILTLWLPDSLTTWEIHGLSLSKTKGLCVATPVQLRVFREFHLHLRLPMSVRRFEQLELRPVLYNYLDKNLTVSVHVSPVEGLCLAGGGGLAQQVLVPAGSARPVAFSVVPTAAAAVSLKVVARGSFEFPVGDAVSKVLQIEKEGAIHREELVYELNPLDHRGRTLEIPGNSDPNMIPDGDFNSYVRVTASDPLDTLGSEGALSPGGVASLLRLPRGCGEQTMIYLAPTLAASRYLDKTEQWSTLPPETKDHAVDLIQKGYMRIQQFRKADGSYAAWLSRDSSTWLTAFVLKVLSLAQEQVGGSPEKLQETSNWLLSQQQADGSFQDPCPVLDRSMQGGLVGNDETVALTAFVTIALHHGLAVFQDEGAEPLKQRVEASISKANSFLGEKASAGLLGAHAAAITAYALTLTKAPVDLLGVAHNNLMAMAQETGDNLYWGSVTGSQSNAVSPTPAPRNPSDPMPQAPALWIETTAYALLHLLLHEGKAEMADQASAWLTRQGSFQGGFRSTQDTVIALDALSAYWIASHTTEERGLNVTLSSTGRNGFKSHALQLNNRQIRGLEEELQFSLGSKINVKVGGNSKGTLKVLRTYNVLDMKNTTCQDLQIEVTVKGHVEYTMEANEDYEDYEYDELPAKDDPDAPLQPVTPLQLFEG
readout: C4b Screen Ref Fold (fold of CFI-HSA wild type)

>>> measurednumber("CFI-HSA Y408L; S507A; N531G; GGSSGG (SEQ ID NO: 6); CCP_1-4 (enzyme)")
0.1

a = CFI-HSA N531G; P535A; S507A; GGSSGG (SEQ ID NO: 6); CCP_1-4 (enzyme)
b = CFI-HSA S507A; GGSSGG (SEQ ID NO: 6); CCP_1-4 (enzyme)
c = CFI-HSA E457G; S507A; GGSSGG (SEQ ID NO: 6); CCP_1-4 (enzyme)
// ascending sort on recorded C4b Screen Ref Fold (fold of CFI-HSA wild type) Return the labels ranked in the requested order, please. c, a, b
(c: 0.12, a: 0.2, b: 0.43)

====

Target: human C4b (human) (UniProt P0C0L5)
Sequence: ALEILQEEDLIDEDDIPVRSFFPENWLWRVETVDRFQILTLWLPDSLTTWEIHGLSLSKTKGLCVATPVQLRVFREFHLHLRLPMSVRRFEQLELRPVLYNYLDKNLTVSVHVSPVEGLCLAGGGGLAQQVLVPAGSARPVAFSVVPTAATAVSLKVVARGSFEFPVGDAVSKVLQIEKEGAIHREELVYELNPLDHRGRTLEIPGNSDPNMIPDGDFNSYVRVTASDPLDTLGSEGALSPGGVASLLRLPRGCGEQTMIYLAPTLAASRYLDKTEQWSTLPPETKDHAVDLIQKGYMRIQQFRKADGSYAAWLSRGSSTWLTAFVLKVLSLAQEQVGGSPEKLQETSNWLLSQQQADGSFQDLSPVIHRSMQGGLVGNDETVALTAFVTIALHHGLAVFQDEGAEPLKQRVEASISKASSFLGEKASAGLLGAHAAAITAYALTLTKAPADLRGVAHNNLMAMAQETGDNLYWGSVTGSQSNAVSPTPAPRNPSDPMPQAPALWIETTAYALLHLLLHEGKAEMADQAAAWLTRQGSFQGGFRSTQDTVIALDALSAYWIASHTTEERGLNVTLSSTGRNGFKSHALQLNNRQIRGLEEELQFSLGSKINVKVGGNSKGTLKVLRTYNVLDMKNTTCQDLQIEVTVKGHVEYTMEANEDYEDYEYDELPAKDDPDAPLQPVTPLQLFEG
readout: C4b Screen Ref Fold (fold vs CFI-HSA wild type)

The examples below pair each entry with its known result.
>>> measurednumber("CFI-HSA Y408L; E457G; R462K; F464Y; N531G; GGSSGG (SEQ ID NO: 6); CR1 (ccp15-17) (from UniProt P17927) (enzyme)")
2.74
>>> measurednumber("CFI-HSA E457G; E461Q; N531G; GGSSGG (SEQ ID NO: 6); CR1 (ccp15-17) (from UniProt P17927) (enzyme)")
4.82
>>> measurednumber("WT; GGSSGG (SEQ ID NO: 6); CR1(ccp15-17); GGSSGG (SEQ ID NO: 6); fH(ccp1-4) (enzyme)")
2.96

I = WT; GGSSGG (SEQ ID NO: 6); CCP_2-4 (enzyme)
II = CFI-HSA variant 514-MDANNVT (SEQ ID NO: 13)-520 --> NG (enzyme)
III = CFI-HSA N531G; E457G; E461Q; ΔC-term (Δ558-PFISQYNV (SEQ ID NO: 14)-565) (enzyme)
IV = CFI-HSA Y408L; E457G; E461Q; R462K; N531G; GGSSGG (SEQ ID NO: 6); CR1 (ccp15-17) (from UniProt P17927) (enzyme)
Order each entry by recorded C4b Screen Ref Fold (fold vs CFI-HSA wild type), climbing from the minimum. Lab note: final answer is the ordered label list. II, I, IV, III
(II: 0.12, I: 0.38, IV: 1.84, III: 3.57)
